Tested on: HL-60(TB) leukemia
PROTOCOL: NCI tumour cell line growth inhibition, 48 h
Where a SMILES comes first, the peptide text is derived from it.
REPORTED PROPERTY: TGI

[in] Report TGI for CC(=O)Nc1nnc(S(=O)(=O)NC(=S)Nc2ccc(Cl)cc2)s1 please.
[out] > 100 µM

[in] Next entry: O=c1[nH]cnc2c1ncn2CCCCO
[out] > 100 µM

[in] How about this molecule: CN(C)CC1=Nc2cccc3cccc(c23)N1
[out] 45.2 µM

[in] Do the same for COC(=O)C1C(/C=C/c2ccoc2)ON2CCC[C@@H]12 (some centres not stated) please
[out] > 100 µM

[in] Now the molecule O=CN1N=C(c2ccc(Nc3ccnc4cc(Cl)ccc34)cc2)CC1c1ccc(Cl)cc1 (configuration not stated)
[out] > 100 µM

[in] Same for Oc1ccccc1-n1nc2ccc3nonc3c2n1
[out] > 100 µM

[in] CN(C)Cc1[nH]c2ccccc2c1C(=O)c1ccccc1 ?
[out] > 100 µM

[in] Proceed to Nc1nc(NCCOCP(=O)(O)O)c(N)c(=O)[nH]1
[out] > 100 µM

[in] # iterate: CC(=O)C1=NN(c2ccccc2)C2(S1)SC(c1ccccc1)(c1ccccc1)c1ccccc12 (configuration not stated)
[out] > 100 µM

[in] Now consider CC(=O)NC(CO)C(=O)NC(Cc1ccc(O)cc1)C(=O)NCC(N)=O (stereo not drawn) (Ac-Ser-Tyr-Gly-NH2; configuration not given here) .
[out] > 100 µM

[in] Follow-up entry: COc1ccc(/C=N\O[Si](C)(C)C(C)(C)C)cc1O[Si](C)(C)C(C)(C)C
[out] 38.1 µM

[in] Subsequent entry: Cc1ccc(-n2cc(-c3ccc(Cl)cc3)c3c2N=CN2NC(c4cccs4)=NC32)cc1 (configuration not stated)
[out] 45.1 µM

[in] And COc1cc2nncc(SCc3ccc(Cl)c(Cl)c3)c2cc1OC ?
[out] > 100 µM

[in] Further, for CC1(C)N=C(Oc2ccccc2)n2nccc2N1 ?
[out] > 100 µM

[in] Next up: C=C1C(=O)O[C@H]2[C@H]1CC/C(CNC(=O)/C=C/c1ccc(Cl)cc1Cl)=C\CC[C@@]1(C)O[C@@H]21
[out] 0.542 µM

[in] Please answer likewise for COc1ccc(CN=C(N)N=C(N)N)cc1OC
[out] > 1000 µM

[in] For COC1(Cc2ccccc2)C(=O)c2ccccc2N1C(C)=O (configuration not stated) then?
[out] > 100 µM

[in] How about CN(C)c1ncnc2c1ccn2C1OC(CO)C(O)C1O (configuration not stated) ?
[out] 1.89 µM

[in] And Cc1cc(-c2ccc(C(=O)C(c3ccccc3)(c3ccccc3)c3ccccc3)[nH]2)on1 ?
[out] 26.1 µM

[in] Further, for O=C(CC(=O)C1CCOC1=O)C(=O)Nc1ccc(Cl)cc1 (configuration not stated) ?
[out] > 100 µM

[in] Okay, and CC1=NN(c2ccccc2)C(=O)C1N=Nc1ccc(S(N)(=O)=O)cc1 (configuration not stated) ?
[out] > 100 µM

[in] For CC/C=C/C(/C=C/C[C@]1(CC)C[C@H](CC)[C@H](CC(=O)O)OO1)CC (some centres not stated) then?
[out] 4.76 µM

* * *

Please provide measured TGI for the entries that follow.
System: SK-MEL-28 melanoma
PROTOCOL: NCI tumour cell line growth inhibition, 48 h

[in] Look up TGI: CCSC12CC3c4cccc5c4C(CN5C(=O)c4ccccc4)CC3(O1)N(C)C2=O (stereo not given)
[out] > 100 µM

[in] Another compound: COc1cc(C2S/C(=C/c3ccccc3)C(=O)N2c2ccccc2Cl)cc(OC)c1OC (stereo not given)
[out] > 100 µM

[in] How about CN(C)Cc1[nH]c2ccccc2c1C(=O)c1ccccc1 ?
[out] > 100 µM

[in] Cool, now NS(=O)(=O)c1ccc(N2N=C(c3cccs3)CC2c2ccccc2O)cc1 (stereo not given)
[out] 8.62 µM

[in] Further, for COC(=O)CNCC1OC2OC(C)(C)OC2C1N=[N+]=[N-] (stereo not given) ?
[out] > 100 µM

[in] Try the compound COc1cccc(C(=O)N[C@@H]2[C@H](O)[C@@H](CO)O[C@H]2n2cnc3c(N)ncnc32)c1
[out] > 100 µM

[in] Next record, please: COc1ccc(CN=C(N)N=C(N)N)cc1OC
[out] > 1000 µM

[in] Also O=C(O)C1CC2CC(=O)C1C2 (stereo not given) ?
[out] > 100 µM

[in] Param item: Cc1cc(C#N)c(Nc2ccccc2[N+](=O)[O-])s1
[out] > 100 µM

[in] Next compound: COc1cc(NC(=O)c2cc(O)c(C/C=C(\C)CCC=C(C)C)c(O)c2)cc2c1O[C@]1(C)CC[C@@H](O)C(C)(C)[C@H]1C2
[out] 8.25 µM

* * *

System: MOLT-4 leukemia
PROTOCOL: NCI tumour cell line growth inhibition, 48 h
Where a SMILES comes first, the peptide text is derived from it.
REPORTED PROPERTY: TGI

[in] Which measured TGI belongs to Cc1cc(Cl)ccc1NC(=O)C(=O)Cc1occc(=O)c1O , tested on MOLT-4 leukemia?
[out] > 100 µM

[in] What would you report for CSc1nc(C)c(CCCl)c(Cl)n1 ?
[out] > 100 µM

[in] Similarly, C/C([O-])=C(/c1nc(-c2ccc([N+](=O)[O-])o2)no1)[n+]1cc(C)ccc1C ?
[out] > 100 µM

[in] Query COC(=O)CCC(C)[C@H]1CCC2C3C(C[C@H](OC(C)=O)[C@@]21C)[C@@]1(C)CCC2(C[C@H]1C[C@H]3OC(C)=O)OOC1(CCCCC1)OO2 (some centres not stated) next
[out] > 100 µM

[in] CC(=O)NC(CO)C(=O)NC(Cc1ccc(O)cc1)C(=O)NCC(N)=O (stereo not drawn) (Ac-Ser-Tyr-Gly-NH2; configuration not given here) ?
[out] > 100 µM

[in] Also, O=C(CC(=O)c1ccccc1)C(=O)NC12CC3CC(CC(C3)C1)C2 please.
[out] > 100 µM

[in] Moving on to O=C1NC(c2ccccc2)N=C2Oc3ccccc3C=C12 (configuration not stated)
[out] > 100 µM

[in] Next: NS(=O)(=O)c1ccc(NC(=O)c2cccc3c(Nc4ccc(S(N)(=O)=O)cc4)c4ccccc4nc23)cc1
[out] 39.8 µM

[in] Now the molecule CSc1nc(-c2ccc(Cl)cc2)c(C#N)c(=O)[nH]1
[out] > 100 µM

[in] What do you have for CN(CCCN(C)CCC1CCCCC1)CCC1CCCCC1 ?
[out] 7.3 µM

[in] Entry to check: Clc1ccc(/C=C/c2nc(Cl)c(-c3ccc(Cl)cc3)c(Cl)n2)cc1
[out] > 100 µM

[in] What do you get for O=C(O)CO/N=C1/C(c2c(O)[nH]c3ccccc23)=Nc2ccccc21 ?
[out] > 100 µM

* * *

System: OVCAR-4 ovarian
PROTOCOL: NCI tumour cell line growth inhibition, 48 h
REPORTED PROPERTY: TGI

[in] Consider the molecule O=C(CN1C(=O)S/C(=C\C(Cl)=C\c2ccccc2)C1=O)NCCCn1ccnc1 and give its measured TGI.
[out] 4.39 µM

[in] What do you have for CC(C)=CCc1cc(C2COc3cc4c(c(O)c3C2=O)C=CC(C)(C)O4)c(O)cc1O (stereo not drawn) ?
[out] 24.2 µM

[in] Further, for CN(C)C(=S)SCC(N)=O ?
[out] > 100 µM

[in] Entry COC1OC(C(C)O)C2OC(C)(C)OC12 (stereo not drawn) please
[out] > 100 µM

[in] Try the molecule CSc1nc(C)c(CCCl)c(Cl)n1
[out] > 100 µM

[in] Okay, and COc1cc2nc(N3CCC[C@@H](NC4=CC(=O)c5ccccc5C4=O)C3)nc(N)c2cc1OC ?
[out] 3.35 µM

[in] Now consider CCc1n[nH]c(=S)n1/N=C\c1ccc(-c2ccccc2[N+](=O)[O-])o1 .
[out] > 100 µM

[in] Quick one: CNc1ncc2cc(Oc3ccc(F)cc3F)c(=O)n(C)c2n1
[out] > 25 µM

* * *

Provide the reported TGI of each item.
System: HCT-15 colon
PROTOCOL: NCI tumour cell line growth inhibition, 48 h

[in] State the recorded TGI for this entry: O=[N+]([O-])c1ccc2[nH]c(O)c(N=NC(=S)Nc3ccccc3)c2c1
[out] 17 µM

[in] Please do the same for CCOP(=O)(OCC)C(=C1C=C(C(C)(C)C)C(=O)C(C(C)(C)C)=C1)P(=O)(OCC)OCC as well.
[out] > 6.87 µM

[in] Queued: CC(=O)C1C(=O)C(=O)N(c2ccc(Br)cc2)C1=O (stereo not given)
[out] > 100 µM

[in] Now the same for CCc1n[nH]c(=S)n1/N=C\c1ccc(-c2ccccc2[N+](=O)[O-])o1
[out] > 100 µM

[in] // next record C/C([O-])=C(/c1nc(-c2ccc([N+](=O)[O-])o2)no1)[n+]1cc(C)ccc1C
[out] 22.3 µM

[in] And CCN1C(=O)CS/C1=N\NC(=O)CSc1nc2ccccc2c(=O)n1CC ?
[out] > 100 µM

[in] Also CN(C)CC1=Nc2cccc3cccc(c23)N1 , if possible.
[out] 77.5 µM

[in] Same question, Nc1ccccc1C#C/C=C\C#Cc1ccccc1F this time
[out] 19.7 µM

[in] Subsequent entry: CCc1c2c(nc3ccc(OCc4ccc(B5OC(C)(C)C(C)(C)O5)cc4)cc13)-c1cc3c(c(=O)n1C2)COC(=O)[C@]3(O)CC
[out] > 100 µM

[in] Can you handle Cc1ccc(S(=O)(=O)Nc2cc(Sc3ccccc3)c(O)c3ccccc23)cc1 next?
[out] 25.1 µM

[in] Let us now turn to NNC(=S)N/N=C(/C(=O)Nc1ccc([N+](=O)[O-])cc1)c1nc2ccc([N+](=O)[O-])cc2[nH]c1=O
[out] > 100 µM

[in] Please do the same for CC(C)(CN)SCc1ccccc1 as well.
[out] > 100 µM

[in] Another: O=c1[nH]c2c(c3ccccc13)CCc1ccccc1-2
[out] > 100 µM

[in] Moving on to the next molecule: Cc1cc(Cl)ccc1NC(=O)C(=O)Cc1occc(=O)c1O
[out] > 100 µM

[in] Also need O=S(=O)(N/N=C/c1ccc(Cl)cc1Cl)c1ccccc1 , thanks.
[out] > 100 µM

[in] Also C=CC[C@H]1[C@H](O[Si](C)(C)C(C)(C)C)C=CC(=O)[C@@H]1CC(=O)OCC , if possible.
[out] 26.6 µM

[in] Now the molecule COc1nc(C)nc2c1ncn2Cc1ccccc1
[out] > 100 µM

[in] Param item: Cc1cn2c(/C=C3/C(=O)Nc4ccccc43)c(C)nc2s1
[out] > 100 µM

[in] Now consider Cn1nc(C(=O)N2CC(CCl)c3c2cc([N+](=O)[O-])c2ccccc32)cc1NC(=O)Nc1cc(C(=O)N2CC(CCl)c3c2cc([N+](=O)[O-])c2ccccc32)nn1C (stereo not given) .
[out] > 100 µM

[in] Now consider NC(=O)N/N=C(\CCC(=O)N(Cc1ccccc1)Cc1ccccc1)CC(=O)c1ccc(F)cc1 .
[out] > 100 µM
